Reference source for all entries: the NIST ThermoML archive (doi:10.1016/j.jct.2013.05.030)

Assay: activity coefficient (dimensionless); of the first substance listed, at infinite dilution; xn = mol fraction of the nth substance listed
Settings: 333.15 K; 101 kPa; Liquid; Chromatography; x1 = 0
Decide using activity coefficient: a value greater than or equal to 1 is Yes, a smaller one is No.

[
  {
    "compound": "CO [methanol] + CCCCCCCCCCCCCC[P+](CCCCCC)(CCCCCC)CCCCCC.O=S(=O)([N-]S(=O)(=O)C(F)(F)F)C(F)(F)F",
    "group": "Yes"
  },
  {
    "compound": "C1CCCCC1 [cyclohexane] + CCCCCCCCCCCCCC[P+](CCCCCC)(CCCCCC)CCCCCC.O=S(=O)([N-]S(=O)(=O)C(F)(F)F)C(F)(F)F",
    "group": "No"
  },
  {
    "compound": "C#CCCCCC [1-heptyne] + CCCCCCCCCCCCCC[P+](CCCCCC)(CCCCCC)CCCCCC.O=S(=O)([N-]S(=O)(=O)C(F)(F)F)C(F)(F)F",
    "group": "No"
  },
  {
    "compound": "CCCCCCCCC [nonane] + CCCCCCCCCCCCCC[P+](CCCCCC)(CCCCCC)CCCCCC.O=S(=O)([N-]S(=O)(=O)C(F)(F)F)C(F)(F)F",
    "group": "Yes"
  },
  {
    "compound": "C#CCCCCCC [1-octyne] + CCCCCCCCCCCCCC[P+](CCCCCC)(CCCCCC)CCCCCC.O=S(=O)([N-]S(=O)(=O)C(F)(F)F)C(F)(F)F",
    "group": "No"
  },
  {
    "compound": "CCCCCCCC [octane] + CCCCCCCCCCCCCC[P+](CCCCCC)(CCCCCC)CCCCCC.O=S(=O)([N-]S(=O)(=O)C(F)(F)F)C(F)(F)F",
    "group": "Yes"
  },
  {
    "compound": "CCCO [propan-1-ol] + CCCCCCCCCCCCCC[P+](CCCCCC)(CCCCCC)CCCCCC.O=S(=O)([N-]S(=O)(=O)C(F)(F)F)C(F)(F)F",
    "group": "Yes"
  }
]
